- Tested on: LG0567-F671-PDC complex spheroids viability
- test-description: Anticancer human tumor LG0567-F671-PDC patient-derived lung adenocarcinoma cell line growth inhibition [RAS]; active means viability on the fitted dose curve at most 10% of control; inactive means the rest
- condition-parameters: second compound 0.00949 µM; first compound 0.003 µM
Returns: one label drawn from active, inactive

// known answers, use as guide
{"molecule": "CC1(C)CCC(Nc2ncc(C(F)(F)F)c(-c3c[nH]c4c(P(C)(C)=O)c(C#N)ccc34)n2)CN1 (centres undefined) + CCn1c(-c2cccnc2C(C)OC)c2c3cc(ccc31)N1CCOC(CC(NC(=O)C(C(C)C)N(C)C(=O)C3(F)CCN(C(=O)C#CC(C)(C)N(C)C)CC3)C(=O)N3CCCC(N3)C(=O)OCC(C)(C)C2)C1", "classification": "inactive"}
{"molecule": "CCc1c2c(nc3ccc(O)cc13)-c1cc3c(c(=O)n1C2)COC(=O)[C@]3(O)CC + CCn1c(-c2cc(N3CCN(C)CC3)cnc2C(C)OC)c2c3cc(ccc31)-c1csc(n1)CC(NC(=O)C1CC1C)C(=O)N1CCCC(N1)C(=O)OCC(C)(C)C2", "classification": "active"}
{"molecule": "CC1(C)CCC(Nc2ncc(C(F)(F)F)c(-c3c[nH]c4c(P(C)(C)=O)c(C#N)ccc34)n2)CN1 (centres undefined) + CCn1c(-c2cc(N3CCN(C)CC3)cnc2C(C)OC)c2c3cc(ccc31)-c1csc(n1)CC(NC(=O)C1CC1C)C(=O)N1CCCC(N1)C(=O)OCC(C)(C)C2", "classification": "active"}

Moving on to another molecule below.
Record request — test call for CCc1c2c(nc3ccc(O)cc13)-c1cc3c(c(=O)n1C2)COC(=O)[C@]3(O)CC + CCn1c(-c2cccnc2C(C)OC)c2c3cc(ccc31)N1CCOC(CC(NC(=O)C(C(C)C)N(C)C(=O)C3(F)CCN(C(=O)C#CC(C)(C)N(C)C)CC3)C(=O)N3CCCC(N3)C(=O)OCC(C)(C)C2)C1
inactive

----------
- System: LG0567-F671-PDC complex spheroids viability
- test-description: Anticancer human tumor LG0567-F671-PDC cell line growth inhibition [RAS]; active = viability on the fitted dose curve at most 10% of control; inactive = the rest;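 further: spheroids exposed to compound for seven days before readout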
- condition-parameters: compound 0.0949 µM
Returns: one label drawn from 1 for active, 0 for inactive

// known answers, use as guide
{"compound": "CCc1c2c(nc3ccc(O)cc13)-c1cc3c(c(=O)n1C2)COC(=O)[C@]3(O)CC", "target-entity": "LG0567-F671-PDC complex spheroids viability", "classification": 0}
{"compound": "CCn1c(-c2cccnc2C(C)OC)c2c3cc(ccc31)N1CCOC(CC(NC(=O)C(C(C)C)N(C)C(=O)C3(F)CCN(C(=O)C#CC(C)(C)N(C)C)CC3)C(=O)N3CCCC(N3)C(=O)OCC(C)(C)C2)C1 (centres undefined)", "target-entity": "LG0567-F671-PDC complex spheroids viability", "classification": 0}
{"compound": "CCn1c(-c2cc(N3CCN(C)CC3)cnc2C(C)OC)c2c3cc(ccc31)-c1csc(n1)CC(NC(=O)C1CC1C)C(=O)N1CCCC(N1)C(=O)OCC(C)(C)C2 (centres undefined)", "target-entity": "LG0567-F671-PDC complex spheroids viability", "classification": 1}

Record request — test call for CC1(C)CCC(Nc2ncc(C(F)(F)F)c(-c3c[nH]c4c(P(C)(C)=O)c(C#N)ccc34)n2)CN1 (centres undefined)
0

----------
- System: LG0567-F671-PDC complex spheroids viability
- test-description: Anticancer human tumor LG0567-F671-PDC cell line growth inhibition [RAS];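 further: spheroids exposed to compound for seven days before readout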
- condition-parameters: second compound 0.000949 µM; first compound 0.1 µM; stronger effect = lower value
molecules and their reported viability, T/C
Numbers only; they are read as %.

{"molecule": "CC1(O)CCCC1n1c(=O)c(C(F)F)cc2cnc(NC3CCN(S(C)(=O)=O)CC3)nc21 (stereo not drawn) + CCn1c(-c2cc(N3CCN(C)CC3)cnc2C(C)OC)c2c3cc(ccc31)-c1csc(n1)CC(NC(=O)C1CC1C)C(=O)N1CCCC(N1)C(=O)OCC(C)(C)C2", "target-entity": "LG0567-F671-PDC complex spheroids viability", "measure-unit": "%", "viability, T/C": 27.7}
{"molecule": "C[C@@H](NC(=O)c1ncnc(N)c1Cl)c1ncc(C(=O)Nc2cc(C(F)(F)F)c(Cl)cn2)s1 + CCn1c(-c2cccnc2C(C)OC)c2c3cc(ccc31)N1CCOC(CC(NC(=O)C(C(C)C)N(C)C(=O)C3(F)CCN(C(=O)C#CC(C)(C)N(C)C)CC3)C(=O)N3CCCC(N3)C(=O)OCC(C)(C)C2)C1", "target-entity": "LG0567-F671-PDC complex spheroids viability", "measure-unit": "%", "viability, T/C": 19.9}

Form entry - test system: LG0567-F671-PDC complex spheroids viability; read-out: viability, T/C; molecule: CCC(CC)c1cc(NC2CCC(N)C2)n2nccc2n1 (stereo not drawn) + CCn1c(-c2cc(N3CCN(C)CC3)cnc2C(C)OC)c2c3cc(ccc31)-c1csc(n1)CC(NC(=O)C1CC1C)C(=O)N1CCCC(N1)C(=O)OCC(C)(C)C2
23.2

----------
- Tested on: LG0567-F671-PDC complex spheroids viability
- test-description: Anticancer human tumor LG0567-F671-PDC cell line growth inhibition [RAS];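 further: spheroids exposed to compound for seven days before readout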;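 on pIC50: luminescence signal used as a proxy for viable cells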
- condition-parameters: curve of first compound; second compound 0.0949 µM
- Excerpt: RAS pathway inhibitors in Combinations in Complex Spheroids A high-throughput screen of multi-cell type tumor spheroids was designed to identify active combinations of RAS pathway inhibitors and targeted small molecules. Complex spheroids include a stromal component modeled by human endothelial cells (HUVEC) and fibroblasts modeled by human mesenchymal stem cells (MSCs). […] Compounds. […] If the clinical Cmax for an agent had not been determined, the highest concentration tested was 10 microM. […]
pIC50: −log10 of the molar value.
readout-type: pIC50

{"molecule": "C[C@@H](NC(=O)c1ncnc(N)c1Cl)c1ncc(C(=O)Nc2cc(C(F)(F)F)c(Cl)cn2)s1 + CCn1c(-c2cc(N3CCN(C)CC3)cnc2C(C)OC)c2c3cc(ccc31)-c1csc(n1)CC(NC(=O)C1CC1C)C(=O)N1CCCC(N1)C(=O)OCC(C)(C)C2", "reported-result": "> 7.50"}

Pending molecule:
Requested read-out: pIC50. Entry: C=CC(=O)Nc1cc(Nc2nccc(-c3cn(C)c4ccccc34)n2)c(OC)cc1N(C)CCN(C)C + CCn1c(-c2cc(N3CCN(C)CC3)cnc2C(C)OC)c2c3cc(ccc31)-c1csc(n1)CC(NC(=O)C1CC1C)C(=O)N1CCCC(N1)C(=O)OCC(C)(C)C2
> 8.50

----------
- Tested on: LG0567-F671-PDC complex spheroids viability
- test-description: Anticancer human tumor LG0567-F671-PDC cell line growth inhibition [RAS];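 further: spheroids exposed to compound for seven days before readout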
- condition-parameters: second compound 0.03 µM; first compound 0.003 µM; stronger effect = lower value
- Description: RAS pathway inhibitors in Combinations in Complex Spheroids A high-throughput screen of multi-cell type tumor spheroids was designed to identify active combinations of RAS pathway inhibitors and targeted small molecules. Complex spheroids include a stromal component modeled by human endothelial cells (HUVEC) and fibroblasts modeled by human mesenchymal stem cells (MSCs). […] Compounds. […] If the clinical Cmax for an agent had not been determined, the highest concentration tested was 10 microM. […]
readout-type: viability, T/C

{"molecule": "CC1(C)CCC(Nc2ncc(C(F)(F)F)c(-c3c[nH]c4c(P(C)(C)=O)c(C#N)ccc34)n2)CN1 (centres undefined) + CCn1c(-c2cccnc2C(C)OC)c2c3cc(ccc31)N1CCOC(CC(NC(=O)C(C(C)C)N(C)C(=O)C3(F)CCN(C(=O)C#CC(C)(C)N(C)C)CC3)C(=O)N3CCCC(N3)C(=O)OCC(C)(C)C2)C1", "viability, T/C": "12.1%"}
{"molecule": "CC1(C)CCC(Nc2ncc(C(F)(F)F)c(-c3c[nH]c4c(P(C)(C)=O)c(C#N)ccc34)n2)CN1 (centres undefined) + CCn1c(-c2cc(N3CCN(C)CC3)cnc2C(C)OC)c2c3cc(ccc31)-c1csc(n1)CC(NC(=O)C1CC1C)C(=O)N1CCCC(N1)C(=O)OCC(C)(C)C2", "viability, T/C": "4.19%"}
{"molecule": "CCc1c2c(nc3ccc(O)cc13)-c1cc3c(c(=O)n1C2)COC(=O)[C@]3(O)CC + CCn1c(-c2cccnc2C(C)OC)c2c3cc(ccc31)N1CCOC(CC(NC(=O)C(C(C)C)N(C)C(=O)C3(F)CCN(C(=O)C#CC(C)(C)N(C)C)CC3)C(=O)N3CCCC(N3)C(=O)OCC(C)(C)C2)C1", "viability, T/C": "11.9%"}

Pending molecule:
Requested read-out: viability, T/C. Entry: CCc1c2c(nc3ccc(O)cc13)-c1cc3c(c(=O)n1C2)COC(=O)[C@]3(O)CC + CCn1c(-c2cc(N3CCN(C)CC3)cnc2C(C)OC)c2c3cc(ccc31)-c1csc(n1)CC(NC(=O)C1CC1C)C(=O)N1CCCC(N1)C(=O)OCC(C)(C)C2
3.96%
